All figures here come from the Biogen ADME set (Fang et al. 2023).

Give measured MDR1-MDCK efflux ratio for each item. Keep answers brief.
Just the number, please.

Consider CN(C)CC(=O)N1CCC(c2ccc(NC(=O)c3nc(C#N)c[nH]3)c(C3=CCCCC3)c2)CC1 . Its measured MDR1-MDCK efflux ratio is 42.6

Consider O=C(Nc1ccc(Cl)nc1)NC1CCN(C2CCCC2)CC1 . Its measured MDR1-MDCK efflux ratio is 20.9

Consider Cc1cc(Nc2ncccn2)cc(C2CCCN(CC(=O)Nc3ccc(F)cc3)C2)n1 (configuration not stated) . Its measured MDR1-MDCK efflux ratio is 8.32

Consider N#Cc1cnc2cc(F)cc(F)c2c1NC1CCN(CC(N)=O)CC1 . Its measured MDR1-MDCK efflux ratio is 15

Consider OCC1CCCCN1Cc1ccc(-c2ccccc2)cc1 (configuration not stated) . Its measured MDR1-MDCK efflux ratio is 0.708

Consider O=C(c1cc2ccccc2[nH]1)N1C[C@@H](O)[C@H](N2CCOCC2)C1 . Its measured MDR1-MDCK efflux ratio is 0.428

Consider CCCn1cnnc1CN(C)Cc1cc(C(C)C)on1 . Its measured MDR1-MDCK efflux ratio is 15.3
